Test system: Plasmodium falciparum
protocol.details: Antimalarial activity against ring stage of Plasmodium falciparum 3D7 infected in human erythrocytes assessed as parasite survival level at 10 uM measured immediately at 0 hrs by Giemsa staining-based microscopic analysis (reference value: 96.4 +/- 5.09%)
Assay type: functional
protocol.conditions: 3D7, 0 h
observable: survival at 10 µM (%)
Reply numerically in %, unit not repeated.

Completed entries (count: 5):
CC(=O)NCCc1c(Cc2ccccc2)[nH]c2ccccc12 [LUZINDOLE]	91.5
C/N=C(\c1[nH]c2ccccc2c1CCNC(=O)OC)c1c(F)cccc1F	93
C/N=C(/c1ccccc1)c1[nH]c2ccccc2c1CCNC(=O)OC	95.8
C/N=C(/c1cc(C(F)(F)F)cc(C(F)(F)F)c1)c1[nH]c2ccc(OC)cc2c1CCNC(=O)OC	95
CC/N=C(/c1cc(C(F)(F)F)cc(C(F)(F)F)c1)c1[nH]c2ccc(OC)cc2c1CCNC(=O)OC	92.5

Now for another entry.
Look up survival at 10 µM: CC/N=C(/c1ccc(C)cc1)c1[nH]c2ccccc2c1CCNC(=O)OC
93

----------
Listed below: survival at 10 µM values for each entry.
System: Plasmodium falciparum
protocol.details: Antimalarial activity against trophozoite stage of Plasmodium falciparum 3D7 infected in human erythrocytes assessed as parasite survival level at 10 uM measured immediately at 0 hrs by Giemsa staining-based microscopic analysis (reference value: 3.55 +/- 5.02%)
Type: functional
protocol.conditions: 3D7, 0 h
Reply numerically in %, unit not repeated.

Completed entries (count: 3):
C/N=C(/c1cc(C(F)(F)F)cc(C(F)(F)F)c1)c1[nH]c2ccc(OC)cc2c1CCNC(=O)OC	5
C/N=C(\c1[nH]c2ccccc2c1CCNC(=O)OC)c1c(F)cccc1F	3
C/N=C(/c1ccccc1)c1[nH]c2ccccc2c1CCNC(=O)OC	4.15

Look up survival at 10 µM: CC/N=C(/c1cc(C(F)(F)F)cc(C(F)(F)F)c1)c1[nH]c2ccc(OC)cc2c1CCNC(=O)OC
7

Look up survival at 10 µM: CC/N=C(/c1ccc(C)cc1)c1[nH]c2ccccc2c1CCNC(=O)OC
7

Look up survival at 10 µM: CC(=O)NCCc1c(Cc2ccccc2)[nH]c2ccccc12
8
